Molecular target: human Fatty Acid Synthase (Homo sapiens)
Construct: made in house
Sequence (P49327 whole entry): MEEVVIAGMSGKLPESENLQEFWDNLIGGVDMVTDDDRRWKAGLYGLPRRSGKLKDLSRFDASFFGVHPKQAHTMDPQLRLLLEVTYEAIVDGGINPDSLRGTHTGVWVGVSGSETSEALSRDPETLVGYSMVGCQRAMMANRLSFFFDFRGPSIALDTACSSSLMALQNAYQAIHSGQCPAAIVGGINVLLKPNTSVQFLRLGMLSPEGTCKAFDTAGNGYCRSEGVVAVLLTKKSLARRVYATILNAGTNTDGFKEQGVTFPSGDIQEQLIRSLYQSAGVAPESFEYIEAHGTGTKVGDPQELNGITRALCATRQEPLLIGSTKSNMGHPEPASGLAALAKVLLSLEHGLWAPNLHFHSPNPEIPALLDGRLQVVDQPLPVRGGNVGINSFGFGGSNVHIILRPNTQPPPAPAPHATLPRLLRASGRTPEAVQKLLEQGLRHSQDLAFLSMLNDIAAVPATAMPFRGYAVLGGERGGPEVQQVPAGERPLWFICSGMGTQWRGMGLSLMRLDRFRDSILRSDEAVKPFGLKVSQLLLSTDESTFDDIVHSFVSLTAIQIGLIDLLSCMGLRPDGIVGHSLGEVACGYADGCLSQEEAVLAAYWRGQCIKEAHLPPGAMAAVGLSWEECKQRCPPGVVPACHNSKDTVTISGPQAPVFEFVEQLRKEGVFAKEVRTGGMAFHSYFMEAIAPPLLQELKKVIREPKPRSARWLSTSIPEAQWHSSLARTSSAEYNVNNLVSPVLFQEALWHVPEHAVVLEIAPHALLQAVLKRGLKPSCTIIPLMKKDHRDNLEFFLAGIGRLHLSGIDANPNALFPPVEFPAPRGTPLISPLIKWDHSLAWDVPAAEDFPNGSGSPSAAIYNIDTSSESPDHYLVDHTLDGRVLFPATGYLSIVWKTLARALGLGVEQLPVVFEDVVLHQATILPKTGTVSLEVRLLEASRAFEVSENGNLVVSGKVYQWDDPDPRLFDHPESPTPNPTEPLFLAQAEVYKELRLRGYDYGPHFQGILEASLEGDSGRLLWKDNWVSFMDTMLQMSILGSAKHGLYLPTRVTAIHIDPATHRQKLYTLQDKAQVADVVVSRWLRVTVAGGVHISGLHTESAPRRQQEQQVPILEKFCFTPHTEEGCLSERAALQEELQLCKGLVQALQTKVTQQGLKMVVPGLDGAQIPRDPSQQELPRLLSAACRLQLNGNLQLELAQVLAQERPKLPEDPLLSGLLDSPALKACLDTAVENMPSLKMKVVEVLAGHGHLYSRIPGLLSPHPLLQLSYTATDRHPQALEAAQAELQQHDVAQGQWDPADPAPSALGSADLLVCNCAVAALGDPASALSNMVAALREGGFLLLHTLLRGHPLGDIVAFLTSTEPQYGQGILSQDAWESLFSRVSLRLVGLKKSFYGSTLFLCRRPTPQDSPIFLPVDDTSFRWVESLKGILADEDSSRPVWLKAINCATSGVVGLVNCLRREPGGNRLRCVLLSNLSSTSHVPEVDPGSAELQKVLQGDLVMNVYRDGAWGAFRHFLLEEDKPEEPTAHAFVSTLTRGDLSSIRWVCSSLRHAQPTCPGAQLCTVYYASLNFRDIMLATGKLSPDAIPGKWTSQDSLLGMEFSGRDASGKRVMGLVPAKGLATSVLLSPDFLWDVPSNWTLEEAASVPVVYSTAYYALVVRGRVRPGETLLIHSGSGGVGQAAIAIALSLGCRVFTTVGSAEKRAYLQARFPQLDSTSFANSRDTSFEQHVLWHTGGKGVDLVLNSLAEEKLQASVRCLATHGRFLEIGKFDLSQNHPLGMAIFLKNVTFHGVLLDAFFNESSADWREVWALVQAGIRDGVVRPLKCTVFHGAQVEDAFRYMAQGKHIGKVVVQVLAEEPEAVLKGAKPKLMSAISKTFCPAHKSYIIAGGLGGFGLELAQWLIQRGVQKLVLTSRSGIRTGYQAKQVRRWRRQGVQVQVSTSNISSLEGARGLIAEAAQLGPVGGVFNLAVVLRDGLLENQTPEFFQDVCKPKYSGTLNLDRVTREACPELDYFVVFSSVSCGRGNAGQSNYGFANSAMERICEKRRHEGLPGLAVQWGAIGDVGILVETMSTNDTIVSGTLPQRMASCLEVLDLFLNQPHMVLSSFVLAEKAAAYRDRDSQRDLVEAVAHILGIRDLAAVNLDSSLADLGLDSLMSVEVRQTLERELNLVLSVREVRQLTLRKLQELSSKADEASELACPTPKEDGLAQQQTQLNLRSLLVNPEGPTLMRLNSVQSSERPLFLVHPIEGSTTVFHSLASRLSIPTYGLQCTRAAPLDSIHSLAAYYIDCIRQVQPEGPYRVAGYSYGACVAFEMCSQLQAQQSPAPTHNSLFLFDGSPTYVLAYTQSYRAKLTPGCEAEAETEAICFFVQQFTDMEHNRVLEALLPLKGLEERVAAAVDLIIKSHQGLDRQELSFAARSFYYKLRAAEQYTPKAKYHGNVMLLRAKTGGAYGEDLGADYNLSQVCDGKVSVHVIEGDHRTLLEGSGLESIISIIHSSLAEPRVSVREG
Experiment: Human FAS enzyme assay (decrease in NADPH fluorescence)
Assay type: biochemical
Details: % inhibition at a concentration of 100 μmolar
Source text: Human and Rat FAS Enzyme Assay. Fatty acid synthase is an enzyme complex that harbours seven enzymatic activities catalysing the reductive synthesis of long chain fatty acids from acetyl CoA and malonyl CoA to palmitate. When acetyl CoA and malonyl CoA are forming palmitate NADPH is consumed forming NADP. Since NADPH is fluorescent but not NADP the reaction can be measured by analysing the decrease in fluorescence. […]
reported-property: inhibition at 100 µM (%)

CC(C)NC(=O)Nc1cc(C(=O)N2CCC(c3ccc(C#N)cc3)CC2)ccc1S(C)(=O)=O    84.1
COc1cc(CNC(=O)Nc2cc(C(=O)N3CCC(c4ccc(C#N)cc4)CC3)ccc2C)cc(OC)c1OC    87.9
Cc1ccc(C(=O)N2CCC(c3ccc(C#N)cc3)CC2)cc1NC(=O)N[C@@H](C)c1ccccc1    92.7
Cc1ccc(C(=O)N2CCC(c3ccc(F)cc3)CC2)cc1NC(=O)NC1CCN(C(=O)OC(C)(C)C)C1 (stereo not shown)    93.6
CCCOCCNC(=O)Nc1cc(C(=O)N2CCC(c3ccc(C#N)cc3)CC2)ccc1C    95
Cc1ccc(C(=O)N2CCC(c3ccc(C(F)(F)F)cc3)CC2)cc1NC(=O)NCCN    82.8
Cc1cc(C)c(C(=O)N2CCC(c3ccc(C#N)cc3)CC2)cc1NC(=O)NC1CC1    90
CCS(=O)(=O)N1CCCC(NC(=O)Nc2cc(C(=O)N3CCC(c4ccc(C#N)cc4)CC3)ccc2C)C1 (stereo not shown)    97.9
CC(=O)NCCNC(=O)Nc1cc(C(=O)N2CCC(c3ccc(C#N)cc3)CC2)ccc1C    93.2
Cc1ccc(C(=O)N2CCC(c3ccc(C#N)cc3)CC2)cc1NC(=O)NCCN(C)C(=O)OC(C)(C)C    92.9
Cc1ccc(C(=O)N2CCC(c3ccc(C#N)cc3)CC2)cc1NC(=O)N(C)C1CCOCC1    62.9
CNC(=O)Nc1cc(C(=O)N2CCC(c3ccc(C#N)cc3)CC2)ccc1C    101
COc1ccccc1OCCNC(=O)Nc1cc(C(=O)N2CCC(c3ccc(C#N)cc3)CC2)ccc1C    102
Cc1ccc(C(=O)N2CCC(c3ccc(C#N)cc3)CC2)cc1NC(=O)NCC(C)O (stereo not shown)    89.6
Cc1ccc(C(=O)N2CCC(c3ccc(C#N)cc3)CC2)cc1NC(=O)NC1CCN(S(=O)(=O)N(C)C)CC1    98.7
C#CCNC(=O)Nc1ccc(C)c(C(=O)N2CCC(c3ccc(C#N)cc3)CC2)c1    67.3
COc1ncccc1-c1cc(CNC(=O)Nc2cc(C(=O)N3CCC(c4ccc(C#N)cc4)CC3)ccc2C)on1    88.4
COCCCNC(=O)Nc1cc(C(=O)N2CCC(c3ccc(C#N)cc3)CC2)ccc1C    93
CC(=O)N1CC[C@H](NC(=O)Nc2cc(C(=O)N3CCC(c4ccc(C#N)cc4)CC3)ccc2C)C1    96.8
COC(=O)[C@H](CNC(=O)Nc1cc(C(=O)N2CCC(c3ccc(C#N)cc3)CC2)ccc1C)NC(=O)OC(C)(C)C    94.8
Cc1ccc(C(=O)N2CCC(c3ccc(C#N)cc3)CC2)cc1NC(=O)NC1CCS(=O)(=O)C1 (stereo not shown)    95.6
Cc1ccc(C(=O)N2CCC(c3ccc(C#N)cc3)CC2)cc1NC(=O)N(C)CCN(C)C    68.7
Cc1ccc(C(=O)N2CCC(c3ccc(C#N)cc3)CC2)cc1NC(=O)NCCNC(=O)C1CCCCC1    96.1
Cc1ccc(C(=O)N2CCC(c3ccc(C#N)cc3)CC2)cc1NC(=O)N[C@@H]1CCNC1    97
Cc1ccc(C(=O)N2CCC(c3ccc(C#N)cc3)CC2)cc1NC(=O)NCC(C)(C)N    91
CC(=O)N[C@@H]1CCCC[C@@H]1NC(=O)Nc1cc(C(=O)N2CCC(c3ccc(C#N)cc3)CC2)ccc1C (relative stereo)    91.5
Cc1ccc(C(=O)N2CCC(c3ccc(C#N)cc3)CC2)cc1NC(=O)NCCC(N)=O    87.4
Cc1ccc(C(=O)N2CCC(c3ccc(C#N)cc3)CC2)cc1NC(=O)NC1(CO)CCCC1    84.3
Cc1ccc(C(=O)N2CCC(c3ccc(C#N)cc3)CC2)cc1NC(=O)N[C@@H](CCS(C)(=O)=O)C(=O)OC(C)(C)C    92
Cc1ccc(C(=O)N2CCC(c3ccc(Cl)cc3)CC2)cc1NC(=O)NC(C)C    92.1
Cc1ccc(C(=O)N2CCC(O)(c3ccc(Cl)cc3)CC2)cc1NC(=O)NC(C)C    71.4

====

Molecular target: human Fatty Acid Synthase (Homo sapiens)
Construct: made in house
Experiment: Human FAS enzyme assay (decrease in NADPH fluorescence)
Assay type: biochemical
Conditions: % inhibition at a concentration of 100 μmolar
reported-property: inhibition at 100 µM (%)

Cc1ccc(C(=O)N2CCC(c3cccc(C#N)c3)CC2)cc1NC(=O)NC(C)C    93.1
Cc1ccc(C(=O)N2CCC(c3ccc(S(N)(=O)=O)cc3)CC2)cc1NC(=O)NC(C)C    97.3
Cc1cc(CNC(=O)Nc2cc(C(=O)N3CCC(c4ccc(C#N)cc4)CC3)ccc2C)no1    105
Cc1ccc(C(=O)N2CCC(c3ccc(C#N)cc3)CC2)cc1NC(=O)N[C@@H](CC(C)C)C(N)=O    78.2

====

Biological target: human Fatty Acid Synthase (Homo sapiens)
Construct: made in house
Assay: Human FAS enzyme assay (decrease in NADPH fluorescence)
Type: biochemical
Settings: % inhibition at a concentration of 100 μmolar
reported-property: inhibition at 100 µM (%)

Cc1ccc(C(=O)N2CCC(c3ccc(C#N)cc3)CC2)cc1NC(=O)NCCC1CCCN1C (stereo not shown) [Example 144]    81.7
Cc1ccc(C(=O)N2CCC(c3ccc(C#N)cc3)CC2)cc1NC(=O)N[C@@H]1CCOC1 [Example 199]    96.3
Cc1ccc(C(=O)N2CCC(c3ccc(C#N)cc3)CC2)cc1NC(=O)NC1CCCN(S(C)(=O)=O)C1 (stereo not shown) [Example 296]    103
Cc1ccc(NC(=O)NCCCS(C)(=O)=O)cc1C(=O)N1CCC(c2ccc(C#N)cc2)CC1 [Example 278]    95.8

====

Biological target: human Fatty Acid Synthase (Homo sapiens)
Construct: made in house
Experiment: Human FAS enzyme assay (decrease in NADPH fluorescence)
Assay type: biochemical
Conditions: % inhibition at a concentration of 100 μmolar
reported-property: inhibition at 100 µM (%)

Cc1ccc(C(=O)N2CCC(c3ccc(C#N)cc3)CC2)cc1NC(=O)NCCC(=O)NC(C)C [Example 129]    99.1
Cc1ccc(C(=O)N2CCC(c3ccc(C#N)cc3)CC2)cc1NC(=O)NC1CCCNC1=O (racemic) [Example 236]    77.1
Cc1ccc(C(=O)N2CCC(c3ccc(C#N)cc3)CC2)cc1NC(=O)NC1COc2ccccc2OC1 [Example 163]    102
Cc1ccc(C(=O)N2CCC(c3ccc(C(F)(F)F)cc3)CC2)cc1NC(=O)NCCNC(=O)OC(C)(C)C [Example 336]    86.9
Cc1ccc(C(=O)N2CCC(c3ccc(C#N)cc3)CC2)cc1NC(=O)NCCc1ccccc1 [Example 16]    98.3
Cc1ccc(C(=O)N2CCC(c3ccc(C#N)cc3)CC2)cc1NC(=O)NCC1COCCO1 (stereo not shown) [Example 160]    94.9
COC(=O)C1CCC(NC(=O)Nc2cc(C(=O)N3CCC(c4ccc(C#N)cc4)CC3)ccc2C)CC1 (stereo not shown) [Example 181]    93.1
Cc1cc(C)c(C(=O)N2CCC(c3ccc(C#N)cc3)CC2)cc1NC(=O)NCc1ccccc1 [Example 12]    84.6
Cc1ccc(C(=O)N2CCC(c3ccc(C#N)cc3)CC2)cc1NC(=O)NCCNc1ccc([N+](=O)[O-])cc1 [Example 87]    92.5
Cc1ccc(C(=O)N2CCC(c3ccc(C#N)cc3)CC2)cc1NC(=O)NCC#N [Example 167]    90.3
CCC(=O)NCCN(C)C(=O)Nc1cc(C(=O)N2CCC(c3ccc(C#N)cc3)CC2)ccc1C [Example 353]    78.4
CCc1ccc(C(=O)N2CCC(c3ccc(C#N)cc3)CC2)cc1NC(=O)NC(C)C [Example 201]    94
Cc1cccc(CNC(=O)Nc2cc(C(=O)N3CCC(c4ccc(C#N)cc4)CC3)ccc2C)n1 [Example 249]    84.2
CCCNC(=O)CCCNC(=O)Nc1cc(C(=O)N2CCC(c3ccc(C#N)cc3)CC2)ccc1C [Example 235]    95.8
Cc1ccc(C(=O)N2CCC(c3ccc(C#N)cc3)CC2)cc1NC(=O)NCc1ccc(F)c(F)c1 [Example 56]    105
Cc1ccc(C(=O)N2CCC(c3ccc(C#N)cc3)CC2)cc1NC(=O)NCC(O)C(F)(F)F (racemic) [Example 195]    88.6
